- Experimental protocol: Solubility measurement in organic solvents
- Format: physicochemical
- Test context: amount (g) of compound completely dissolved in propylene glycol methyl ether acetate
Property name: Solubility in PGMEA (g)
Write it as a number; the unit g goes unstated.

CC(=O)O/N=C(\C)c1ccc(-c2nc(C(Cl)(Cl)Cl)nc(C(Cl)(Cl)Cl)n2)cc1 [Comparative Example 2] yielded Solubility in PGMEA of 7

What the record says about CCn1c2ccc(C(=O)c3ccc(OCC4COC(C)(C)O4)cc3)cc2c2cc(/C(CC(c3ccccc3)N(OC(C)=O)C(C)=O)=N/OC(C)=O)ccc21 (stereo not shown) [Example 1] : Solubility in PGMEA is 20

The molecule CCn1c2ccc(C(=O)c3ccccc3C)cc2c2cc(/C(C)=N/OC(C)=O)ccc21 [Comparative Example 1] showed Solubility in PGMEA equal to 12

Lookup result for CC(=O)O/N=C/c1ccc(-c2ccc(-c3nc(C(Cl)(Cl)Cl)nc(C(Cl)(Cl)Cl)n3)cc2)cc1 [Comparative Example 3] ; measured Solubility in PGMEA: 7
